// provenance: patent US10206937B2

assayed-system: NDM-1 (Klebsiella pneumoniae)
Sequence (C7C422 29-270, looked up, species assumed): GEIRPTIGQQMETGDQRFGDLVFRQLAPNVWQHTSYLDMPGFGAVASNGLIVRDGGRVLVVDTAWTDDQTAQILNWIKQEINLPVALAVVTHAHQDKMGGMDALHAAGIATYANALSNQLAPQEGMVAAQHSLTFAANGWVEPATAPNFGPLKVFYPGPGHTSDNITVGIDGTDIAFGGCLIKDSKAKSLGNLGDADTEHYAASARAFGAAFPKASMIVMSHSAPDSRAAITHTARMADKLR
procedure-text: Inhibition of purified class B carbapenemase NDM-1 (Ki, imipenem substrate)
Assay type: biochemical
assay-context: NDM-1, substrate imipenem; read-out: Ki NDM-1, Imipenem
measurement-kind: Ki

>>> df
                                    compound  measurement_kind      observed
 0  Nc1ncc(S[C@H]2Cc3ccc(F)c(C(=O)O)c3OB2O)s1 [Compound 52]                Ki      > 100 nM
 1  COc1ccc2c(c1C(=O)O)OB(O)[C@@H](Sc1cncs1)C2 [Compound 69]                Ki      > 100 nM
 2  O=C(O)c1c(F)ccc2c1OB(O)[C@@H](SC1CNC1)C2 [Compound 46]                Ki      > 100 nM
 3  COc1ccc2c(c1C(=O)O)OB(O)[C@@H](Sc1nncn1CCCC(=O)O)C2 [Compound 41]                Ki       < 10 nM
 4  NC(=O)CS[C@H]1Cc2cccc(C(=O)O)c2OB1O [Compound 3]                Ki      > 100 nM
 5  COc1cc(OC)c(C(=O)O)c2c1C[C@H](Sc1nnc(N)s1)B(O)O2 [Compound 32]                Ki  10 to 100 nM
 6  O=C(O)c1c(F)ccc2c1OB(O)[C@@H](Sc1nccs1)C2 [Compound 45]                Ki  10 to 100 nM
 7  Nc1nnc(S[C@H]2Cc3c(F)cc(F)c(C(=O)O)c3OB2O)s1 [Compound 33]                Ki  10 to 100 nM
 8  N#CCOc1ccc2c(c1C(=O)O)OB(O)[C@@H](Sc1nncs1)C2 [Compound 86]                Ki      > 100 nM
 9  COc1ccc2c(c1C(=O)O)OB(O)[C@@H](Sc1nnc(SC3CNC3)s1)C2 [Compound 108]                Ki  10 to 100 nM
10  COc1ccc2c(c1C(=O)O)OB(O)[C@@H](Sc1nc(C(N)=O)cs1)C2 [Compound 61]                Ki      > 100 nM
11  COc1ccc2c(c1C(=O)O)OB(O)[C@@H](Sc1nc(N)ns1)C2 [Compound 74]                Ki      > 100 nM
12  Nc1nnc(S[C@H]2Cc3ccc(Cl)c(C(=O)O)c3OB2O)s1 [Compound 36]                Ki  10 to 100 nM
13  Cc1ccc2c(c1C(=O)O)OB(O)[C@@H](Sc1nnc(N)s1)C2 [Compound 31]                Ki      > 100 nM
14  COc1ccc2c(c1C(=O)O)OB(O)[C@@H](Sc1nncs1)C2 [Compound 62]                Ki      > 100 nM
15  COc1ccc2c(c1C(=O)O)OB(O)[C@@H](Sc1nnc(N[C@H]3CCNC3)s1)C2 [Compound 103]                Ki       < 10 nM
16  COc1ccc2c(c1C(=O)O)OB(O)[C@@H](Sc1nnc(CN)n1N)C2 [Compound 66]                Ki  10 to 100 nM
17  COc1ccc2c(c1C(=O)O)OB(O)[C@@H](Sc1nncn1CCCCN)C2 [Compound 73]                Ki  10 to 100 nM

###

assayed-system: VIM-1 (Pseudomonas aeruginosa)
Construct: culture supernatant used unpurified
procedure-text: biochemical
assay-context: cleavage of nitrocefin (200 uM) by VIM-1 supernatant
measurement-kind: IC50

>>> print(df.to_string())
                                smiles_repr   observed
0  Nc1nnc(S[C@H]2Cc3c(F)cc(F)c(C(=O)O)c3OB2O)s1  ≥ 1000 nM
1  CCOc1ccc2c(c1C(=O)O)OB(O)[C@@H](Sc1nnc(N)s1)C2  < 1000 nM
2  COc1ccc2c(c1C(=O)O)OB(O)[C@@H](Sc1nc(N)ns1)C2  < 1000 nM
3  COc1ccc2c(c1C(=O)O)OB(O)[C@@H](Sc1c[nH]nn1)C2  < 1000 nM
4  Nc1nnc(S[C@H]2Cc3ccc(OC(F)F)c(C(=O)O)c3OB2O)s1  < 1000 nM
5  COc1ccc2c(c1C(=O)O)OB(O)[C@@H](SCCN1CCNCC1)C2  < 1000 nM
6        CC(=N)S[C@H]1Cc2cccc(C(=O)O)c2OB1O  ≥ 1000 nM
7  Nc1ncc(S[C@H]2Cc3ccc(F)c(C(=O)O)c3OB2O)s1  < 1000 nM
8  COc1ccc2c(c1C(=O)O)OB(O)[C@@H](SC1CN(C3=NCCS3)C1)C2  ≥ 1000 nM

###

assayed-system: UniProt C7C422
procedure-text: biochemical
assay-context: Ki, Imipenem
pKi: −log10 of the molar value.
measurement-kind: pKi

>>> df
                                   molecule      observed
0  O=C(O)c1cccc2c1OB(O)[C@@H](Sc1nncs1)C2 [Compound 1]  7.00 to 8.00

###

assayed-system: purified class A, C and D enzymes (Escherichia coli, UniProt Q9L5C7)
Sequence (Q9L5C7 entry or part of it): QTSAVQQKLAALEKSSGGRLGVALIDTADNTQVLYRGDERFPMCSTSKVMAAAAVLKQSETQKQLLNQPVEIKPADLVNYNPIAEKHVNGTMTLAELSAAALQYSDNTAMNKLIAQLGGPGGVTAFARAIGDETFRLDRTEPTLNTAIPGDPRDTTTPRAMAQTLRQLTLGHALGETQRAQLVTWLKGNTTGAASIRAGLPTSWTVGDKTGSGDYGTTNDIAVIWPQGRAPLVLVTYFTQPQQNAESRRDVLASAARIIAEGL
Assay type: biochemical
assay-context: purified CTX-M-14; nitrocefin reporter substrate
measurement-kind: Ki (CTX-M-14, NCF)

>>> df
                                smiles_repr              observed
0       N#CCS[C@H]1Cc2ccc(F)c(C(=O)O)c2OB1O  X (Less than 0.1 μM)
1  COc1ccc2c(c1C(=O)O)OB(O)[C@@H](Sc1cncs1)C2  X (Less than 0.1 μM)
2  COc1ccc2c(c1C(=O)O)OB(O)[C@@H](SC1CN(S(N)(=O)=O)C1)C2  X (Less than 0.1 μM)
3  O=C(O)c1c(OC(F)F)ccc2c1OB(O)[C@@H](Sc1nncs1)C2  X (Less than 0.1 μM)
4  COc1ccc2c(c1C(=O)O)OB(O)[C@@H](Sc1nncn1CCCC(=O)O)C2  X (Less than 0.1 μM)
5  NC(=O)COc1ccc2c(c1C(=O)O)OB(O)[C@@H](Sc1nnc(N)s1)C2  X (Less than 0.1 μM)
6  Cc1ccc2c(c1C(=O)O)OB(O)[C@@H](Sc1nnc(N)s1)C2  X (Less than 0.1 μM)
7  NCCSc1nnc(S[C@H]2Cc3cccc(C(=O)O)c3OB2O)s1  X (Less than 0.1 μM)

###

assayed-system: purified class A, C and D enzymes (UniProt Q6XEC0)
Construct: rows headed: Ki (OXA-48, NCF); other: purified OXA-48; nitrocefin reporter substrate
assay-context: read-out: Ki (OXA-48, NCF); purified OXA-48; nitrocefin reporter substrate
pKi: −log10 of the molar value.
Reported pKi is given for each of the following molecules.
measurement-kind: pKi

>>> df
                                    molecule  measurement_kind      observed
 0  COc1ccc2c(c1C(=O)O)OB(O)[C@@H](Sc1nnc(CN3CCNCC3)n1N)C2 [Compound 71]               pKi  6.00 to 7.00
 1  O=C(O)c1c(F)ccc2c1OB(O)[C@@H](Sc1nnc(C(F)(F)F)s1)C2 [Compound 55]               pKi        > 7.00
 2  COc1ccc2c(c1C(=O)O)OB(O)[C@@H](SC1CN(C3=NCCS3)C1)C2 [Compound 65]               pKi        > 7.00
 3  Nc1nnc(S[C@H]2Cc3c(F)cc(F)c(C(=O)O)c3OB2O)s1 [Compound 33]               pKi        > 7.00
 4  COc1ccc2c(c1C(=O)O)OB(O)[C@@H](Sc1nnc(NCCN3CCNCC3)s1)C2 [Compound 98]               pKi        > 7.00
 5  C[S+]([O-])c1ccc2c(c1C(=O)O)OB(O)[C@@H](Sc1nnc(N)s1)C2 (stereo partly drawn) [Compound 34]               pKi        > 7.00
 6  Nc1ncc(S[C@H]2Cc3ccc(F)c(C(=O)O)c3OB2O)s1 [Compound 52]               pKi        > 7.00
 7  O=C(O)[C@H]1/C(=C/CO)O[C@@H]2CC(=O)N21 [Clavulanic acid]               pKi        < 6.00
 8  COc1ccc2c(c1C(=O)O)OB(O)[C@@H](Sc1nnc(OCCN)s1)C2 [Compound 117]               pKi        > 7.00
 9  COCc1ccc2c(c1C(=O)O)OB(O)[C@@H](Sc1nnc(N)s1)C2 [Compound 35]               pKi        > 7.00
10  COc1ccc2c(c1C(=O)O)OB(O)[C@@H](Sc1nnc[nH]1)C2 [Compound 70]               pKi        > 7.00
11  Nc1nnc(S[C@H]2Cc3cc(F)c(F)c(C(=O)O)c3OB2O)s1 [Compound 37]               pKi        > 7.00
12  CO[C@H]1Cc2cccc(C(=O)O)c2OB1O [Compound 17]               pKi        > 7.00
13  COc1ccc2c(c1C(=O)O)OB(O)[C@@H](Sc1ncns1)C2 [Compound 75]               pKi        > 7.00
14  Nc1nnc(S[C@H]2Cc3c(F)c(F)c(F)c(C(=O)O)c3OB2O)s1 [Compound 38]               pKi        > 7.00
15  NCCOc1ccc2c(c1C(=O)O)OB(O)[C@@H](Sc1nnc(N)s1)C2 [Compound 79]               pKi        > 7.00
16  CSc1ccc2c(c1C(=O)O)OB(O)[C@@H](Sc1nnc(N)s1)C2 [Compound 30]               pKi        > 7.00
17  COc1ccc2c(c1C(=O)O)OB(O)[C@@H](Sc1nnc(N)s1)C2 [Compound 27]               pKi        > 7.00
